B1: Homeobox protein cut-like 2, residues 895 to 963; numbered along this chain, O14529 (parent)
chain: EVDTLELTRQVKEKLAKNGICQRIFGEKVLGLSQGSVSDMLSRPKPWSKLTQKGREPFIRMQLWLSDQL

# Variants of: B1
# TEST_METHOD_NOTES: abundance fitness (aPCA) (normalised: wild type 0, dead -1); higher = more abundant; growth selection in yeast, the domain comes from the species named
# MEASUREMENT_PARAMETERS: Homo sapiens
MEASURED_ENDPOINT: abundance fitness
Answers are plain numbers.

Solved entries:
sequence_string=EVDTLELTRQVKEKLAKNGICQRIFGEKVLGLSQGSVSDMLSRPKLWSKLTQKGREPFIRMQLWLSDQL measured_endpoint="abundance fitness" result=0.026
sequence_string=EVDTLELTRQVKEKLAKNGICQIIFGEKVLGLSQGSVSDMLSRPKPWSKLTQKGREPFIRMQLWLSDQL measured_endpoint="abundance fitness" result=-0.192
sequence_string=EVDTLELTRQVKEKLAKQGICQRIFGEKVLGLSQGSVSDMLSRPKPWSKLTQKGREPFIRMQLWLSDQL measured_endpoint="abundance fitness" result=-0.016
sequence_string=EVDTLELTRQVKEKLAKNGICQRISGEKVLGLSQGSVSDMLSRPKPWSKLTQKGREPFIRMQLWLSDQL measured_endpoint="abundance fitness" result=-0.721
sequence_string=EVDTLELTRQVKYKLAKNGICQRIFGEKVLGLSQGSVSDMLSRPKPWSKLTQKGREPFIRMQLWLSDQL measured_endpoint="abundance fitness" result=-0.08

Please look at the items below and tell me abundance fitness for each one, in order.
1. EVDTLELTRQVKEKLAKNGICQRIFGEKVLGLSQGSVSDMLSRPKPWSKLTQKGREPFIRMQLWLQDQL
2. EVDTLELTRQVKEKLAKNGICQRIFGEKVLGLSQGSVSDMLSRPKPWSKLTQLGREPFIRMQLWLSDQL
3. EVDTLELTRQVKEKLAKNGICQRIFGEKVLGLSQGSVSDMLSRPKPYSKLTQKGREPFIRMQLWLSDQL
4. EVDTLELTRQVKEKLAKNGICQRIFGEKVLGLSQGSVSDMLSRPKPWSKLTVKGREPFIRMQLWLSDQL
5. EVDTLELTRQVKEKLAKNGICQRIFGEKVLGLSQGSVSDMLSRPKPWSKLTQKGREPFIRFQLWLSDQL
6. EVDTLELTRQVKEKLAKNGICQRIFGEKVLGLSQGSVSDMLSRPKPWSKLTCKGREPFIRMQLWLSDQL
7. EVDTLELTRQVMEKLAKNGICQRIFGEKVLGLSQGSVSDMLSRPKPWSKLTQKGREPFIRMQLWLSDQL
8. EVDTCELTRQVKEKLAKNGICQRIFGEKVLGLSQGSVSDMLSRPKPWSKLTQKGREPFIRMQLWLSDQL

1. 0.002
2. -0.101
3. -0.554
4. -0.034
5. -0.157
6. -0.038
7. -0.237
8. -0.03

Please look at the items below and tell me abundance fitness for each one, in order.
1. EVDTLELPRQVKEKLAKNGICQRIFGEKVLGLSQGSVSDMLSRPKPWSKLTQKGREPFIRMQLWLSDQL
2. EVDTLELTRQVKENLAKNGICQRIFGEKVLGLSQGSVSDMLSRPKPWSKLTQKGREPFIRMQLWLSDQL
3. EVDTLELTRQVKEKLAKNKICQRIFGEKVLGLSQGSVSDMLSRPKPWSKLTQKGREPFIRMQLWLSDQL
4. EVDTLELTRQVKEKLAKNGICQRIFGEKVLGLSQGSVSDMLSRPKPWSKLPQKGREPFIRMQLWLSDQL
5. EVDTGELTRQVKEKLAKNGICQRIFGEKVLGLSQGSVSDMLSRPKPWSKLTQKGREPFIRMQLWLSDQL

-0.185
-0.249
0.009
-0.355
-0.061

Please look at the items below and tell me abundance fitness for each one, in order.
1. EVDTLELTRQVKEKLAKNGITQRIFGEKVLGLSQGSVSDMLSRPKPWSKLTQKGREPFIRMQLWLSDQL
2. EVDTLELTRQVKEKLAKNGICQRIFGEKVLGLSQGSVSDILSRPKPWSKLTQKGREPFIRMQLWLSDQL
3. EVDTLELTRQVKEKLAKNGICQRIFGEGVLGLSQGSVSDMLSRPKPWSKLTQKGREPFIRMQLWLSDQL
4. EVDTLELTRQVKEKLAKNGICQRIFGEKVLGLSQGSVSDMLSRPKPWSKLTQKGREPFINMQLWLSDQL
5. EVDTLELTRQVKEKLAKNGICQRIFGEKVLGLSQGSVSDMLSRPKPWSKLTQKGREPFIRMQLWLSKQL

[0.093, 0.007, -0.184, -0.413, -0.037]
